# tested on: T1, HaloTag-ATRX ADD domain (163-292)
# T1 chain: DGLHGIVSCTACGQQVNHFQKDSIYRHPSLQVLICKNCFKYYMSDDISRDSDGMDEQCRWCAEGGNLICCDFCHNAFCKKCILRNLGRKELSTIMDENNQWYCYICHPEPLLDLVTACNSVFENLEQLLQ
# experimental details: peptide microarray binding signal (635 nm), min-max normalized on array (fraction of array maximum); higher = stronger binding
# measurement parameters: peptide region: Unmod H1 variant; binder concentration: 50 nM
// peptide microarray binding signal lookup, one value per entry

peptide microarray binding signal reading for ASGSFKLNKKAAS [Unmod H1 variant A S G S F K L N K K A A S] : 0.0207

peptide microarray binding signal reading for PKKAKAAKPKKAP [Unmod H1 variant P K K A K A A K P K K A P] : 0.009

peptide microarray binding signal reading for GAAKRKASGPPVS [Unmod H1 variant G A A K R K A S G P P V S] : 0.0168

peptide microarray binding signal reading for AVAASKERSGVSL [Unmod H1 variant A V A A S K E R S G V S L] : 0.0286

peptide microarray binding signal reading for PKKSVAFKKTKKE [Unmod H1 variant P K K S V A F K K T K K E] : 0.0103

peptide microarray binding signal reading for AKKPAGAAKKPKK [Unmod H1 variant A K K P A G A A K K P K K] : 0.00931

peptide microarray binding signal reading for KAAKPKKAAAKKK [Unmod H1 variant K A A K P K K A A A K K K] : 0.00972

peptide microarray binding signal reading for KAKKAGAAKAKKP [Unmod H1 variant K A K K A G A A K A K K P] : 0.0128

peptide microarray binding signal reading for KPKATPVKKAKKK [Unmod H1 variant K P K A T P V K K A K K K] : 0.0137

peptide microarray binding signal reading for KAKKPAATRKSSK [Unmod H1 variant K A K K P A A T R K S S K] : 0.0344

peptide microarray binding signal reading for PKKAKKPAAAAGA [Unmod H1 variant P K K A K K P A A A A G A] : 0.0116

peptide microarray binding signal reading for DSQIKLSIKRLVT [Unmod H1 variant D S Q I K L S I K R L V T] : 0.0155

peptide microarray binding signal reading for PPVSELITKAVAA [Unmod H1 variant P P V S E L I T K A V A A] : 0.0304

peptide microarray binding signal reading for KPKKATGAATPKK [Unmod H1 variant K P K K A T G A A T P K K] : 0.00674

peptide microarray binding signal reading for VKKKARKSAGAAK [Unmod H1 variant V K K K A R K S A G A A K] : 0.0176

peptide microarray binding signal reading for SETAPAAPAAPAP [Unmod H1 variant S E T A P A A P A A P A P] : 0.0194

Data provenance is the supplement of paper PMC4022240.
